assay: Caco-2 Permeability Assay; type: in vitro ADME, human; conditions: human, Caco-2, pH 7.4
measured_quantity: Papp at 90 min, 10 µM (nm/s)

item_smiles: CC(C)C[C@H](N)C(=O)OCCCCC(=O)OCn1ccc2c1c(=O)[nH]c(=S)n2CCOC(C)C.O=C(O)C(F)(F)F
measured_quantity: Papp at 90 min, 10 µM
censor_symbol: <
quantitative_readout: 0.662
//
item_smiles: CC(C)OCCn1c(=S)n(COC(=O)[C@@H](N)C(C)C)c(=O)c2c1ccn2COC(=O)[C@@H](N)C(C)C.O=C(O)C(F)(F)F.O=C(O)C(F)(F)F
measured_quantity: Papp at 90 min, 10 µM
censor_symbol: =
quantitative_readout: 4.62
//
item_smiles: CC(C)OCCn1c(SCOC(=O)[C@H](NC(=O)OC(C)(C)C)C(C)C)nc(=O)c2c1ccn2COC(=O)[C@H](NC(=O)OC(C)(C)C)C(C)C
measured_quantity: Papp at 90 min, 10 µM
censor_symbol: =
quantitative_readout: 158
//
item_smiles: CC(C)OCCn1c(=S)[nH]c(=O)c2c1ccn2COC(=O)[C@H](N)Cc1ccccc1.O=C(O)C(F)(F)F
measured_quantity: Papp at 90 min, 10 µM
censor_symbol: =
quantitative_readout: 54.4
//
item_smiles: CC(C)C[C@H](NC(=O)OC(C)(C)C)C(=O)OCn1c(=O)c2c(ccn2COC(=O)[C@H](CC(C)C)NC(=O)OC(C)(C)C)n(CCOC(C)C)c1=S
measured_quantity: Papp at 90 min, 10 µM
censor_symbol: =
quantitative_readout: 76
//
item_smiles: CC(C)OCCn1c(=S)[nH]c(=O)c2c1ccn2COC(=O)[C@@H](C)N.O=C(O)C(F)(F)F
measured_quantity: Papp at 90 min, 10 µM
censor_symbol: <
quantitative_readout: 10.6
//
item_smiles: CC(C)OCCn1c(SCOC(=O)[C@@H](N)Cc2ccccc2)nc(=O)c2c1ccn2COC(=O)[C@@H](N)Cc1ccccc1.O=C(O)C(F)(F)F.O=C(O)C(F)(F)F
measured_quantity: Papp at 90 min, 10 µM
censor_symbol: <
quantitative_readout: 1.23
//
item_smiles: CC(C)OCCn1c(=S)[nH]c(=O)c2c1ccn2COC(=O)[C@H](NC(=O)OC(C)(C)C)C(C)C
measured_quantity: Papp at 90 min, 10 µM
censor_symbol: =
quantitative_readout: 335
//
item_smiles: CC(C)OCCn1c(SCOC(=O)[C@H](Cc2ccccc2)NC(=O)OC(C)(C)C)nc(=O)c2c1ccn2COC(=O)[C@H](Cc1ccccc1)NC(=O)OC(C)(C)C
measured_quantity: Papp at 90 min, 10 µM
censor_symbol: =
quantitative_readout: 55.6
//
item_smiles: CC(C)C[C@@H](N)C(=O)OCn1ccc2c1c(=O)n(CO)c(=S)n2CCOC(C)C.O=C(O)C(F)(F)F
measured_quantity: Papp at 90 min, 10 µM
censor_symbol: <
quantitative_readout: 10.3
//
item_smiles: CC(C)OCCn1c(=S)[nH]c(=O)c2c1ccn2COC(=O)CCCCOC(=O)[C@@H](NC(=O)OC(C)(C)C)C(C)C
measured_quantity: Papp at 90 min, 10 µM
censor_symbol: <
quantitative_readout: 0.72
//
item_smiles: CC(C)C[C@H](N)C(=O)OCn1c(=O)c2c(ccn2COC(=O)[C@@H](N)CC(C)C)n(CCOC(C)C)c1=S.O=C(O)C(F)(F)F.O=C(O)C(F)(F)F
measured_quantity: Papp at 90 min, 10 µM
censor_symbol: <
quantitative_readout: 1.06
//
item_smiles: CC(C)C[C@@H](NC(=O)OC(C)(C)C)C(=O)OCCCCC(=O)OCn1ccc2c1c(=O)[nH]c(=S)n2CCOC(C)C
measured_quantity: Papp at 90 min, 10 µM
censor_symbol: =
quantitative_readout: 10.6

###

assay: Caco-2 Permeability Assay; format: in vitro ADME, human; conditions: human, Caco-2, pH 7.4, Caco-2 monolayer; the 15th table
Overview of recorded Papp at 90 min, 10 µM for various molecules
measured_quantity: Papp at 90 min, 10 µM (×10⁻⁶ cm/s)

item_smiles: CC(C)OCCn1c(SCOC(=O)NCc2ccccc2)nc(=O)c2[nH]ccc21
quantitative_readout: 3.84
--
item_smiles: COC(=O)OCSc1nc(=O)c2c(ccn2COC(=O)OC)n1CCOC(C)C
quantitative_readout: 11.4
--
item_smiles: CC(C)CNC(=O)OCSc1nc(=O)c2[nH]ccc2n1CCOC(C)C
quantitative_readout: 7.23
--
item_smiles: CCCCNC(=O)OCSc1nc(=O)c2c(ccn2C(=O)NCCCC)n1CCOC(C)C
quantitative_readout: 42.9
--
item_smiles: CCN(C(=O)OCSc1nc(=O)c2[nH]ccc2n1CCOC(C)C)C(C)C
quantitative_readout: 13.8
--
item_smiles: CC(C)OCCn1c(=S)[nH]c(=O)c2c1ccn2C(=O)OC(C)(C)C
quantitative_readout: 1.08
--
item_smiles: COC(=O)OCSc1nc(=O)c2[nH]ccc2n1CCOC(C)C
quantitative_readout: 9.76
--
item_smiles: CC(C)NC(=O)OCSc1nc(=O)c2c(ccn2C(=O)NC(C)C)n1CCOC(C)C
quantitative_readout: 30
--
item_smiles: CCCNC(=O)OCSc1nc(=O)c2c(ccn2COC(=O)NCCC)n1CCOC(C)C
quantitative_readout: 4.59
--
item_smiles: COC(=O)OCSc1nc(=O)c2c(ccn2CSc2nc(=O)c3[nH]ccc3n2CCOC(C)C)n1CCOC(C)C
quantitative_readout: 5.54
--
item_smiles: CC(C)CNC(=O)OCSc1nc(=O)c2c(ccn2COC(=O)NCC(C)C)n1CCOC(C)C
quantitative_readout: 11.7
--
item_smiles: CC(C)NC(=O)OCSc1nc(=O)c2[nH]ccc2n1CCOC(C)C
quantitative_readout: 19.5
--
item_smiles: CCCCOC(=O)OCSc1nc(=O)c2[nH]ccc2n1CCOC(C)C
quantitative_readout: 6.35
--
item_smiles: CCCCCCCCOC(=O)OCSc1nc(=O)c2[nH]ccc2n1CCOC(C)C
quantitative_readout: 0.138
--
item_smiles: CC(C)OCCn1c(SCOC(=O)NCc2ccccc2)nc(=O)c2c1ccn2C(=O)NCc1ccccc1
quantitative_readout: 31.6
--
item_smiles: CC(C)OCCn1c(SCOC(=O)OC(C)C)nc(=O)c2[nH]ccc21
quantitative_readout: 13.4
--
item_smiles: CCN(C(=O)OCSc1nc(=O)c2c(ccn2COC(=O)N(CC)C(C)C)n1CCOC(C)C)C(C)C
quantitative_readout: 30.6
--
item_smiles: CC(C)CNC(=O)OCSc1nc(=O)c2c(ccn2C(=O)NCC(C)C)n1CCOC(C)C
quantitative_readout: 33.1

###

test: Stability in Simulated Gastric Fluid (SGF); format: in vitro ADME; set-up: key: % parent compound remaining relative to 0-minute sample; settings: simulated gastric fluid, at 1 h

molecule: Cc1ccc(N(C)C(=O)OCSc2nc(=O)c3[nH]ccc3n2CCOC(C)C)cc1
SGF: 99% remaining

molecule: COc1ccc(N(C)C(=O)OCSc2nc(=O)c3[nH]ccc3n2CCOC(C)C)cc1 [Example 241]
SGF: 57% remaining

molecule: Cc1ccccc1N(C)C(=O)OCSc1nc(=O)c2c(ccn2COC(=O)N(C)c2ccccc2C)n1CCOC(C)C
SGF: 88% remaining

###

Overview of recorded SIF for various compounds
experiment: Stability in Simulated Intestinal Fluid (SIF); assay type: in vitro ADME; design: key: % parent compound remaining relative to 0-minute sample; settings: % remaining at 1 h in simulated intestinal fluid; the 15th table

item_smiles: CC(C)CNC(=O)OCSc1nc(=O)c2c(ccn2COC(=O)NCC(C)C)n1CCOC(C)C
value_unit: % @ 1 h
SIF: 97
--
item_smiles: CCCNC(=O)OCSc1nc(=O)c2c(ccn2COC(=O)NCCC)n1CCOC(C)C
value_unit: % @ 1 h
SIF: 99
--
item_smiles: CCN(C(=O)OCSc1nc(=O)c2[nH]ccc2n1CCOC(C)C)C(C)C
value_unit: % @ 1 h
SIF: 98
--
item_smiles: CC(C)CNC(=O)OCSc1nc(=O)c2c(ccn2C(=O)NCC(C)C)n1CCOC(C)C
value_unit: % @ 1 h
SIF: 97
--
item_smiles: CCN(C(=O)OCSc1nc(=O)c2c(ccn2COC(=O)N(CC)C(C)C)n1CCOC(C)C)C(C)C
value_unit: % @ 1 h
SIF: 97
--
item_smiles: CCCNC(=O)OCSc1nc(=O)c2[nH]ccc2n1CCOC(C)C
value_unit: % @ 1 h
SIF: 69
--
item_smiles: CC(C)OCCn1c(=S)[nH]c(=O)c2c1ccn2C(=O)OC(C)(C)C
value_unit: % @ 1 h
SIF: 82

###

Overview of recorded human Plasma stability for various compounds
assay: Plasma Stability; type: in vitro ADME, human; conditions: % remaining @ 1 h

item_smiles: CC(C)OCCn1c(=S)n(COC(=O)CCCCOC(=O)CN)c(=O)c2c1ccn2COC(=O)CCCCOC(=O)CN.O=C(O)C(F)(F)F.O=C(O)C(F)(F)F
human Plasma stability (% @ 1 h): 4
//
item_smiles: CC(C)OCCn1c(=S)[nH]c(=O)c2c1ccn2COC(=O)[C@@H](C)N.O=C(O)C(F)(F)F
human Plasma stability (% @ 1 h): 20
//
item_smiles: CC(C)OCCn1c(=S)[nH]c(=O)c2c1ccn2COC(=O)[C@H](Cc1ccccc1)NC(=O)OC(C)(C)C
human Plasma stability (% @ 1 h): 67
//
item_smiles: CC(C)OCCn1c(=S)[nH]c(=O)c2c1ccn2COC(=O)[C@H](N)Cc1ccccc1.O=C(O)C(F)(F)F
human Plasma stability (% @ 1 h): 4
